Origin of the recorded values: patent US7056679B2

Target: DGI-2 (Homo sapiens, UniProt Q15004)
Construct: encompassed the entire DGI-2 open reading frame (ORF); His-tag of vector pIVEX2.3-MCS (inferred from the vector and from the reverse primer lacking a stop codon); made in house; host or cells: cell-free in vitro translation (Rapid Translation System RTS, Roche; E. coli lysate)
Sequence (Q15004 1-111): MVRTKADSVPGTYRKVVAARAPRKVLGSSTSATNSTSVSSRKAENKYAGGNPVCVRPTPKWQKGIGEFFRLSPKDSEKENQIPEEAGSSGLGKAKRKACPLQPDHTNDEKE
Assay: ELISA analysis of phage on DGI-2 polypeptide (specific binding)
Conditions: ratio of specific binding to non-specific binding
measure: DGI-2/LDH (OD)

Solved cases below.
VCGQRVARMQLNKTIRKLDS (DGI-2-20F-PP-A6; listed as Escherichia coli): 2.8
ISGQVWSSWRFPGWGGKLF (ISGQVWSSWRFPGWGGKF; DGI-2-20R-3-D10; listed as Escherichia coli): 4.5
VQFAMTLSSRLWQHARHPLTDDAPPTVSFGTRRETLAGKA (DGI-2-40F-3-D3; listed as Escherichia coli): 1.1
VVRQGCMAFSGLCSGVTESE (DGI-2-20R-3-C8; listed as Escherichia coli): 5.3
RDTTSQWSWISRGWEFPGWR (DGI-2-20R-3-C2; listed as Escherichia coli): 5.8

[1] MGQGFHYNRQPYMSHQCYAFTFSTPFLDGDRIPHGVSRGL (DGI-2-40F-3-D1; listed as Escherichia coli)
[2] GGGRESWGGGWFMGWGSGAG (DGI-2-20R-3-A6; listed as Escherichia coli)
[3] GITGLFCLCLRSSQSI (DGI-2-20F-PP-D6; listed as Escherichia coli) [DGI-2-20F-P0P-D6]
[4] EGQRVVFLFGALVAGLCWRDR (DGI-2-20F-PP-F3; listed as Escherichia coli)
Order the 4 sequences from highest to lowest DGI-2/LDH (OD). # format: label list in the order the request specifies
2, 3, 4, 1

[A] GSVLERGCLEFSGFCFSLGH (DGI-2-20F-3-C1; listed as Escherichia coli)
[B] FRMWVQSCFWGQPGTGCGEG (DGI-2-20R-3-D2; listed as Escherichia coli)
Between A and B , whose recorded DGI-2/LDH (OD) is greater? Selection: enter the item's label.
B

[a] SLLCVVCRPVSGGRALGGVP (DGI-2-20F-PP-B42; listed as Escherichia coli)
[b] LSRIWRGVIESAREVESRGI (DGI-2-20F-3-B1; listed as Escherichia coli)
Between a and b , whose recorded DGI-2/LDH (OD) is greater? Selection: enter the item's label.
a
(a: 2.5, b: 1.2)
